ENDPOINT_NAME: melting point

Recorded melting point (compound `COc1nc(-c2ccc(Cl)cc2)ns1` ): 137 to 139 °C

Field melting point (entry `COc1nc(-c2ccc([N+](=O)[O-])cc2)ns1` ) reads 138 to 140 °C

Per the record, `COc1nc(-c2ccccc2)nc(-c2ccccc2)n1` has melting point of 109 to 111 °C

Please fill in: melting point reported for `CCSc1nc(-c2ccc(Cl)cc2)ns1` = 44 to 45 °C

The compound identified as `CCSc1nc(-c2ccncc2)ns1` registered its melting point at 49 to 50 °C

For record `CCOC(=O)C=C1N=C(SCC)SN1` the listed melting point is 128 to 129 °C

Lab note: measured melting point of `CCSc1nc(OC)ns1` was 35 to 37 °C

What the record says about `COc1cccc(-c2nsc(OC)n2)c1` : melting point is 73 to 75 °C

compound `COc1cccc(-c2nc(OC)nc(-c3cccc(OC)c3)n2)c1` , melting point observed: 126 to 128 °C

Sample `CCSc1nc(-c2ccc(Br)cc2)ns1` ; melting point observed: 36 to 37 °C

melting point in this record for `CCSc1nc(-c2cnccn2)ns1` : 60 to 62 °C

// melting point lookup, compound = `CCSc1nc(-c2ccc(OC)cc2)ns1` , result: 54 to 56 °C

GET /value?item= `CCSc1nc(-c2ccc([N+](=O)[O-])cc2)ns1` &field=melting point returns 103 to 104 °C

# melting point (compound: `CCSc1nc(N(C)C)ns1` ) is 116 to 118 °C

get_value(item= `COc1nc(-c2ccc(F)cc2)nc(-c2ccc(F)cc2)n1` , readout=melting point) returns 173 to 174 °C

Lab note: `CCSC1=NC(=CC(N)=O)NS1` gave melting point of 140 to 142 °C

// `CSc1nc(-c2ccc(Cl)cc2)ns1` : melting point value = 105 to 107 °C

// field: melting point; key: `COc1nc(-c2ccc(Cl)cc2)nc(-c2ccc(Cl)cc2)n1` ; value = 192 to 194 °C

Measured melting point, `CCSc1nc(-c2ccc(F)cc2)ns1` : 35 to 36 °C
